This collection of values is drawn from ChEMBL document CHEMBL1140308.

System: HL-60
procedure_text: Concentration required to inhibit the growth of human leukemia cancer HL-60 cell line by 50% after 120 hours; determined by MTT assay
Assay type: functional
cond: HL-60, 120 h
reported_metric: GI50 (nM)

1) O=C1c2cccc3cc([N+](=O)[O-])cc(c23)C(=O)N1CCCN1CCN(CCCNc2ccc3ncn4c5ccccc5c(=O)c2c34)CC1 : 3.5
2) CN(CCCNc1ccc2ncn3c4ccccc4c(=O)c1c23)CCCN1C(=O)c2cccc3cc([N+](=O)[O-])cc(c23)C1=O : 120
3) COc1ccc2nc3cc(Cl)ccc3c(NCCCN3CCN(CCCNc4ccc5ncn6c7ccccc7c(=O)c4c56)CC3)c2c1 : 400
4) Nc1cc2c3c(cccc3c1)C(=O)N(CCCN1CCN(CCCNc3ccc4ncn5c6ccccc6c(=O)c3c45)CC1)C2=O : 5
5) CN(C)CCN1C(=O)c2cccc3cc([N+](=O)[O-])cc(c23)C1=O [MITONAFIDE] : 45

====

Tested on: HCT-116
procedure_text: Concentration required to cause lethality in human colon cancer HCT116 cell line by 50% after 120 hours; determined by MTT assay
Assay type: functional
cond: HCT-116, 120 h
reported_metric: LC50 (µM)

1) Nc1cc2c3c(cccc3c1)C(=O)N(CCCN1CCN(CCCNc3ccc4ncn5c6ccccc6c(=O)c3c45)CC1)C2=O : 0.08
2) O=C1c2cccc3cc([N+](=O)[O-])cc(c23)C(=O)N1CCCN1CCN(CCCNc2ccc3ncn4c5ccccc5c(=O)c2c34)CC1 : 0.032
3) CN(CCCNc1ccc2ncn3c4ccccc4c(=O)c1c23)CCCN1C(=O)c2cccc3cc([N+](=O)[O-])cc(c23)C1=O : 0.22

====

Tested on: A549
procedure_text: Concentration required to inhibit human […] lung cancer A549 cell growth by 50% after 120 hours; determined by MTT assay
Type: functional
cond: A549, 120 h
reported_metric: GI50

1) O=C1c2cccc3cc([N+](=O)[O-])cc(c23)C(=O)N1CCCN1CCN(CCCNc2ccc3ncn4c5ccccc5c(=O)c2c34)CC1 : 0.6 nM
2) CN(CCCNc1ccc2ncn3c4ccccc4c(=O)c1c23)CCCN1C(=O)c2cccc3cc([N+](=O)[O-])cc(c23)C1=O : 25 nM
3) COc1ccc2nc3cc(Cl)ccc3c(NCCCN3CCN(CCCNc4ccc5ncn6c7ccccc7c(=O)c4c56)CC3)c2c1 : 8 nM
4) CN(C)CCN1C(=O)c2cccc3cc([N+](=O)[O-])cc(c23)C1=O [MITONAFIDE] : 65 nM

====

Listed below: LC50 values for each entry.
Tested on: HL-60
procedure_text: Concentration required to cause lethality in human leukemia cancer HL-60 cell line by 50% after 120 hours; determined by MTT assay
Format: functional
cond: HL-60, 120 h
reported_metric: LC50 (nM)

1. CN(CCCNc1ccc2ncn3c4ccccc4c(=O)c1c23)CCCN1C(=O)c2cccc3cc([N+](=O)[O-])cc(c23)C1=O : 500
2. O=C1c2cccc3cc([N+](=O)[O-])cc(c23)C(=O)N1CCCN1CCN(CCCNc2ccc3ncn4c5ccccc5c(=O)c2c34)CC1 : 33
3. Nc1cc2c3c(cccc3c1)C(=O)N(CCCN1CCN(CCCNc3ccc4ncn5c6ccccc6c(=O)c3c45)CC1)C2=O : 450
